# assayed.target: UniProt P21802
# test.description: FGFR wild type enzyme assay (HTRF KinEASE-TK), FGFR2
# setup.conditions: Enz FGFR2 (nM), FGFR2 wild type enzyme assay
Threshold-based label: IC50 under 2 nM gives Y, IC50 not under 2 nM gives N.

// below: answered molecules
Is 2 nM strictly greater than the molecule's reported IC50? molecule: Cn1ccc(-c2cc(Sc3ccc(F)cc3C#N)c3c(C#N)cnn3c2)cc1=O
N

Is 2 nM strictly greater than the molecule's reported IC50? molecule: CN1CCC(n2cc(-c3cc(Sc4ncccc4F)c4c(C#N)cnn4c3)nn2)CC1
N

Is 2 nM strictly greater than the molecule's reported IC50? molecule: N#Cc1ccccc1Sc1cc(-c2cnn([C@@H]3CCCN(CCO)C3)c2)cn2ncc(C#N)c12
Y

Is 2 nM strictly greater than the molecule's reported IC50? molecule: N#Cc1cnn2cc(-c3ccc(N4CC[C@H](O)C4)nc3)cc(Sc3ncccc3F)c12
Y

Is 2 nM strictly greater than the molecule's reported IC50? molecule: CN1CCC(n2ncc(-c3cc(Sc4ncccc4F)c4c(C#N)cnn4c3)c2C#N)CC1
N

---
Is 2 nM strictly greater than the molecule's reported IC50? molecule: CN1CC[C@@H](n2cc(-c3cc(Sc4ccccc4C#N)c4c(C#N)cnn4c3)cn2)CC1=O
Y

Is 2 nM strictly greater than the molecule's reported IC50? molecule: CC(=O)N1CC[C@H](n2cc(-c3cc(Sc4ccccc4C#N)c4c(C#N)cnn4c3)cn2)C1
Y

Is 2 nM strictly greater than the molecule's reported IC50? molecule: CC(=O)N1CC[C@@H](n2cc(-c3cc(Sc4ccc(F)cc4C#N)c4c(C#N)cnn4c3)cn2)C[C@H]1C
Y

Is 2 nM strictly greater than the molecule's reported IC50? molecule: N#Cc1ccccc1Sc1cc(-c2cnn([C@H]3CCN(C(=O)CO)C3)c2)cn2ncc(C#N)c12
Y

Is 2 nM strictly greater than the molecule's reported IC50? molecule: Cc1c(-c2cc(Sc3ncc(Cl)cc3F)c3c(C#N)cnn3c2)cnn1C1CCN(C)CC1
N

* * *

# assayed.target: FGFR2 (Homo sapiens, UniProt P21802)
# Sequence (P21802 399-821 limits assumed): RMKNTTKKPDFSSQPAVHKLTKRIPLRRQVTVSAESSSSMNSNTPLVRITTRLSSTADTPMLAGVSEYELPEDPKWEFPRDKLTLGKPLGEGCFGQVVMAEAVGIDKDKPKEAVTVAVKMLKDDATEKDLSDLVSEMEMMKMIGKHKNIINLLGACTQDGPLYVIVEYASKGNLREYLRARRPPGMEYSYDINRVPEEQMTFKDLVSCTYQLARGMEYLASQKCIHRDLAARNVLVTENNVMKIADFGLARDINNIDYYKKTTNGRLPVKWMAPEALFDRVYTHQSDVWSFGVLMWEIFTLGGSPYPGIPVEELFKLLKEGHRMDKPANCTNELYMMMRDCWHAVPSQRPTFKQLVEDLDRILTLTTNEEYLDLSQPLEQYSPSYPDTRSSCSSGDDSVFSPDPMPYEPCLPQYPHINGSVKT
# test.description: FGFR wild type enzyme assay (HTRF KinEASE-TK), FGFR2
# setup.conditions: Enz FGFR2 (nM), FGFR2 wild type enzyme
Threshold-based label: IC50 under 2 nM gives 1.0, IC50 not under 2 nM gives 0.0.

// below: answered compounds
Is 2 nM strictly greater than the compound's reported IC50? compound: Cc1c(-c2cc(Sc3ncccc3F)c3c(C#N)cnn3c2)cnn1[C@H]1CC[C@]2(CCNC2)CC1
1.0

Is 2 nM strictly greater than the compound's reported IC50? compound: Cc1c(-c2cc(Sc3ccccc3C#N)c3c(C#N)cnn3c2)cnn1CC1CCNCC1
1.0

Is 2 nM strictly greater than the compound's reported IC50? compound: CNC1CC2(C1)CC(n1ncc(-c3cc(Sc4ncccc4F)c4c(C#N)cnn4c3)c1C)C2 (stereo not drawn)
1.0

Is 2 nM strictly greater than the compound's reported IC50? compound: CC(=O)N1CCC(Cn2ncc(-c3cc(Sc4ccccc4C#N)c4c(C#N)cnn4c3)c2C)CC1
1.0

Please turn your attention to the following entry.
Is 2 nM strictly greater than the compound's reported IC50? compound: CC(=O)N1CC[C@]2(CC[C@H](n3ncc(-c4cc(Sc5ncccc5F)c5c(C#N)cnn5c4)c3C)CC2)C1
1.0

* * *

# reported IC50; entries follow
# assayed.target: FGFR2 (Homo sapiens, UniProt P21802)
# test.description: FGFR wild type enzyme assay (HTRF KinEASE-TK), FGFR2
# setup.conditions: Enz FGFR2 (nM), FGFR2 wild type enzyme assay
Give the value in nM but do not write nM after it.

Give IC50; test system FGFR2 (Homo sapiens, UniProt P21802); compound Cc1c(-c2cc(Sc3ccc(F)cc3C#N)c3c(C#N)cnn3c2)cnn1[C@H]1CC[C@](C)(N)CC1
0.5

---
Give IC50; test system FGFR2 (Homo sapiens, UniProt P21802); compound N#Cc1cc(F)ccc1Sc1cc(-c2ccc(NCCO)nc2)cn2ncc(C#N)c12
2.5

Give IC50; test system FGFR2 (Homo sapiens, UniProt P21802); compound Cc1c(-c2cc(Sc3ccc(F)cc3C#N)c3c(C#N)cnn3c2)cnn1C[C@H](O)CO
11

Give IC50; test system FGFR2 (Homo sapiens, UniProt P21802); compound CN(CC(O)CO)c1ccc(-c2cc(Sc3ccc(F)cc3C#N)c3c(C#N)cnn3c2)cn1 (centres unmarked)
1

Give IC50; test system FGFR2 (Homo sapiens, UniProt P21802); compound N#Cc1cc(F)ccc1Sc1cc(-c2ccc(N3CCCC3)nc2)cn2ncc(C#N)c12
1

* * *

# assayed.target: FGFR2 (Homo sapiens, UniProt P21802)
# test.description: FGFR wild type enzyme assay (HTRF KinEASE-TK), FGFR2
# setup.conditions: Enz FGFR2 (nM)
Threshold-based label: IC50 under 2 nM gives Satisfied, IC50 not under 2 nM gives Not satisfied.

// below: answered molecules
Is 2 nM strictly greater than the molecule's reported IC50? molecule: Cc1c(-c2cc(Sc3ccccn3)c3c(C#N)cnn3c2)cnn1C1CCN(CCO)CC1
Not satisfied

Is 2 nM strictly greater than the molecule's reported IC50? molecule: N#Cc1cnn2cc(-c3cnn([C@H]4CCCNC4)c3)cc(SC3CCC3)c12
Satisfied

Is 2 nM strictly greater than the molecule's reported IC50? molecule: Cn1ncc2cc(Sc3cc(-c4cnn([C@H]5CCCNC5)c4)cn4ncc(C#N)c34)ccc21
Not satisfied

Is 2 nM strictly greater than the molecule's reported IC50? molecule: Cc1c(-c2cc(Sc3ccccn3)c3c(C#N)cnn3c2)cnn1C1CCN(C(=O)[C@@H]2CCCN2C)CC1
Not satisfied

Is 2 nM strictly greater than the molecule's reported IC50? molecule: N#Cc1cnn2cc(-c3ccc(OCCN4CCOCC4)nc3)cc(Sc3ccccn3)c12
Not satisfied

---
Is 2 nM strictly greater than the molecule's reported IC50? molecule: CCSc1cc(-c2cnn([C@H]3CCCN(C[C@H](O)CO)C3)c2)cn2ncc(C#N)c12
Satisfied

Is 2 nM strictly greater than the molecule's reported IC50? molecule: Cc1ccc(F)c(Sc2cc(-c3cnn(C4CCN(C)CC4)c3C)cn3ncc(C#N)c23)n1
Not satisfied

Is 2 nM strictly greater than the molecule's reported IC50? molecule: N#Cc1cnn2cc(-c3cnn([C@H]4CCCNC4)c3)cc(Sc3cc(C(F)(F)F)ccn3)c12
Not satisfied

Is 2 nM strictly greater than the molecule's reported IC50? molecule: Cc1c(-c2cc(Sc3ccccc3F)c3c(C#N)cnn3c2)cnn1[C@H]1CCCNC1
Satisfied

Is 2 nM strictly greater than the molecule's reported IC50? molecule: Cc1c(-c2cc(Sc3ncccc3F)c3c(C#N)cnn3c2)cnn1[C@H]1CC[C@@H](N(C)C)CC1
Satisfied

Is 2 nM strictly greater than the molecule's reported IC50? molecule: Cc1c(-c2cc(Sc3ccccc3F)c3c(C#N)cnn3c2)cnn1C1CCNCC1
Satisfied

Is 2 nM strictly greater than the molecule's reported IC50? molecule: Cc1c(-c2cc(Sc3ccccc3C#N)c3c(C#N)cnn3c2)cnn1[C@H]1CC[C@@H](N(C)C)CC1
Satisfied

Is 2 nM strictly greater than the molecule's reported IC50? molecule: Cc1c(-c2cc(Sc3cccn4cncc34)c3c(C#N)cnn3c2)cnn1C1CCN(C)CC1
Satisfied

Is 2 nM strictly greater than the molecule's reported IC50? molecule: N#Cc1cnn2cc(-c3ccc(N4CCCC4)nc3)cc(Sc3ccccn3)c12
Not satisfied

* * *

# assayed.target: FGFR2 (Homo sapiens, UniProt P21802)
# test.description: FGFR wild type enzyme assay (HTRF KinEASE-TK), FGFR2
# setup.conditions: Enz FGFR2 (nM), FGFR2 wild type enzyme assay
assay.endpoint: log10 IC50 (log10 of the value in nM)
Values reflect log10 of reported IC50 (nM).

Please report log10 IC50 for the following compound: N#Cc1ccccc1Sc1cc(-c2cnn(CC[C@H](O)CO)c2)cn2ncc(C#N)c12 [Example 668]
-0.40

Please report log10 IC50 for the following compound: N#Cc1cc(F)ccc1Sc1cc(-c2cnn([C@H]3CCCNC3)n2)cn2ncc(C#N)c12 [Example 462]
1.28

Now turn to the next compound.
Please report log10 IC50 for the following compound: CNC(=O)CCn1cc(-c2cc(Sc3ccccc3C#N)c3c(C#N)cnn3c2)cn1 [Example 672]
0.00

* * *

# assayed.target: FGFR2 V564F (Homo sapiens, UniProt P21802, V564F)
# Sequence (P21802 399-821 V564F limits assumed): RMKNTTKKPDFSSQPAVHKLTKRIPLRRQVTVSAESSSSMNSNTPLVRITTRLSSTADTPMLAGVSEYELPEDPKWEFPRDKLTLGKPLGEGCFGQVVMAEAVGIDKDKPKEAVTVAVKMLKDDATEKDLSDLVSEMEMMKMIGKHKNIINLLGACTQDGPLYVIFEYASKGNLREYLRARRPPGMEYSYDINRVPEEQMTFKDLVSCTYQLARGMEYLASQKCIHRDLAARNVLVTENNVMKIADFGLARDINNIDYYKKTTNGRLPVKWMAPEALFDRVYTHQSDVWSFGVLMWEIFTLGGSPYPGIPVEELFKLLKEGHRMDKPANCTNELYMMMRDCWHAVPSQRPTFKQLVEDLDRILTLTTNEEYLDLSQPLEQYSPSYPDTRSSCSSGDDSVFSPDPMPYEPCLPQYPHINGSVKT
# test.description: FGFR mutant enzyme assay (HTRF KinEASE-TK), FGFR2 V564F
# setup.conditions: Table 4
assay.endpoint: IC50 (nM)
Give the value in nM but do not write nM after it.

# annotated cases, reported IC50 shown
Please report IC50 for the following molecule: CN[C@H]1CC[C@@H](n2ncc(-c3cc(Sc4ccccc4C#N)c4c(C#N)cnn4c3)c2C)CC1
0.5

Please report IC50 for the following molecule: Cc1c(-c2cc(Sc3cccc(F)c3C#N)c3c(C#N)cnn3c2)cnn1C1CCNCC1
4

Please report IC50 for the following molecule: Cc1nc(Sc2cc(-c3cnn(C4CCN(C)CC4)c3C)cn3ncc(C#N)c23)ccc1F
9

Now turn to the next molecule.
Please report IC50 for the following molecule: N#Cc1cnn2cc(-c3cnn([C@H]4CCCNC4)c3)cc(Sc3ccccn3)c12
3
